System: PKB Ser473 phosphorylation in Rat1-myr-HA-p110 alpha cells
Experiment: Reverse protein array assay, PKB Ser473 phosphorylation in Rat1-myr-p110 alpha cells
Format: cell-based
Settings: 0.5 h, pAkt Ser473, 30 minutes compound incubation, read-out: p-PKB IC50
The following compounds are listed with their measured IC50 values.
REPORTED METRIC: IC50 (nM)

- Cc1nn(C(C)C)cc1-n1c(=O)n(C)c2cnc3ccc(-c4cnc(N(C)C)nc4)cc3c21: 61
- CCn1nccc1-n1c(=O)n(C)c2cnc3ccc(-c4ccc(N(C)C)nc4)cc3c21: 158
- CCOc1cc(-c2ccc3ncc4c(c3c2)n(-c2cn(CCO)nc2C)c(=O)n4C)cnc1C: 8
- Cc1nn(C)cc1-n1c(=O)n(C)c2cnc3ccc(-c4cncc(OC(F)F)c4)cc3c21: 23
